From: ChEMBL document CHEMBL4673338

biological target: Cytochrome P450 3A4 (Homo sapiens, UniProt P08684); assay: Inhibition of CYP3A4 (unknown origin); type: ADME
Sequence (P08684 whole entry): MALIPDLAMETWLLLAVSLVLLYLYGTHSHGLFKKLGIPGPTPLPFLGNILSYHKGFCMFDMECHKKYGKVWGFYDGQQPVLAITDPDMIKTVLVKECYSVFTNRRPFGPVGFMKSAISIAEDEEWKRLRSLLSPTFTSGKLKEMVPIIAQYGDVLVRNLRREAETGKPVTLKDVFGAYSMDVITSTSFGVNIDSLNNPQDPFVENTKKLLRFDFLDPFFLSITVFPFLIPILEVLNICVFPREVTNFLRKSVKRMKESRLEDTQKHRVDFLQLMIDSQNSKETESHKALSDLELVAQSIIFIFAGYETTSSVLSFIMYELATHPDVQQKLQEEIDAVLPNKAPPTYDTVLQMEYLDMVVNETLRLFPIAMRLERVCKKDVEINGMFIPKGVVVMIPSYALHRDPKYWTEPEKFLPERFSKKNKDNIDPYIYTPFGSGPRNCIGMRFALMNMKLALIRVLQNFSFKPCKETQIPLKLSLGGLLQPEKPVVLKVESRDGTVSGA
Below, each entry is listed alongside its reported pIC50.
Field pIC50 (float): negative decimal logarithm of the concentration in molar.

CS(=O)(=O)Nc1cccc(CC(=O)Nc2nc(-c3c[nH]c4ncc(Br)cc34)cs2)c1 | 4.46

So what pIC50 did CS(=O)(=O)Nc1cccc(CC(=O)Nc2nc(-c3c[nH]c4ncc(O)cc34)cs2)c1 get with Cytochrome P450 3A4 (Homo sapiens, UniProt P08684)?
5.30

For the record CS(=O)(=O)Nc1cccc(CC(=O)Nc2nc(-c3c[nH]c4ncc(Cl)cc34)cs2)c1 , what value of pIC50 is listed for Cytochrome P450 3A4 (Homo sapiens, UniProt P08684)?
5.10

# value lookup — system Cytochrome P450 3A4 (Homo sapiens, UniProt P08684), readout pIC50, item CS(=O)(=O)Nc1cccc(CC(=O)Nc2nc(-c3c[nH]c4nccc(Cl)c34)cs2)c1
5.10

Given the entry CS(=O)(=O)Nc1cccc(CC(=O)Nc2nccc(-c3c[nH]c4ncccc34)n2)c1 , what pIC50 was observed with Cytochrome P450 3A4 (Homo sapiens, UniProt P08684)?
4.32

Lab note: need pIC50 for CS(=O)(=O)Nc1cccc(CC(=O)Nc2csc(-c3c[nH]c4ncccc34)n2)c1 on Cytochrome P450 3A4 (Homo sapiens, UniProt P08684), anyone have it?
4.92

Form field: pIC50 recorded for CS(=O)(=O)Nc1cccc(CC(=O)Nc2nc(-c3c[nH]c4ncc(F)cc34)cs2)c1 with Cytochrome P450 3A4 (Homo sapiens, UniProt P08684) (enter value)
5.22

Please provide the recorded pIC50 for CN1CCN(CCOc2cccc(CC(=O)Nc3nc(-c4c[nH]c5ncc(F)cc45)cs3)c2)CC1 , tested on Cytochrome P450 3A4 (Homo sapiens, UniProt P08684).
4.57

Fill in the recorded pIC50 for this compound, with Cytochrome P450 3A4 (Homo sapiens, UniProt P08684) as test system: CS(=O)(=O)Nc1cccc(CC(=O)Nc2nnc(-c3c[nH]c4ncccc34)s2)c1
4.00
